Exercise: state measured pIC50 for each of the compounds provided.
- assayed-system: His6-tagged BRAFV600E full-length (amino acids 2-766) (Homo sapiens, UniProt P15056, V600E)
- Construct: BRAFV600E full-length (amino acids 2-766); His6; made in house
- Sequence (P15056 2-766 V600E): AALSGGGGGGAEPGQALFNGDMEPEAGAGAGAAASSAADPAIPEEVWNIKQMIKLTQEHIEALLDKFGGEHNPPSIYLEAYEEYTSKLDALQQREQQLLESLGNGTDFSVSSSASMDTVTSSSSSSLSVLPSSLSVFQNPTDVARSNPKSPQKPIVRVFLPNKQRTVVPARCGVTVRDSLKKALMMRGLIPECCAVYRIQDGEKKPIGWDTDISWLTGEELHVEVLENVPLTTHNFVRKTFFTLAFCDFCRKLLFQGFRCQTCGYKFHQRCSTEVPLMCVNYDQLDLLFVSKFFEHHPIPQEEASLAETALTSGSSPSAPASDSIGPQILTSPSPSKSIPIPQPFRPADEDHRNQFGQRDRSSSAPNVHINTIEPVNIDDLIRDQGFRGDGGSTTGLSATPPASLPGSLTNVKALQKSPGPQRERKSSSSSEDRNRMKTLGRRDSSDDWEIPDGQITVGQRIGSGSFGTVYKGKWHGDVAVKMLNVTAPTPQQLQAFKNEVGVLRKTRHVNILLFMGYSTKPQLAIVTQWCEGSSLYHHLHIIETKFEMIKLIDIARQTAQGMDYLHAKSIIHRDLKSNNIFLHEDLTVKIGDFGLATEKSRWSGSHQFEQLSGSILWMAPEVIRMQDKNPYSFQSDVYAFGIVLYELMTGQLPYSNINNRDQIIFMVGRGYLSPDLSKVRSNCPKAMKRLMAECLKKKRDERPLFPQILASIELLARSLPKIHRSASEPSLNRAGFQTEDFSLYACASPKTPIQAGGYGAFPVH
- experimental-details: biochemical
- Assay type: biochemical
- condition-parameters: Table 1b (later runs); average pIC50 for the one or more runs; read-out: B-Raf plC50
pIC50: −log10 of the molar value.

IN: Requested field: pIC50. Item: `CC(C)c1nc(-c2cccc(NS(=O)(=O)c3cc(F)ccc3F)c2F)c(-c2ccnc(NCCCNS(C)(=O)=O)n2)s1`
OUT: ≥ 8.50

***
IN: Requested field: pIC50. Item: `CC(C)c1nc(-c2cccc(NS(=O)(=O)c3cc(F)ccc3F)c2F)c(-c2ccnc(NCCCNC(=O)CO)n2)s1`
OUT: ≥ 8.50
